As shown below, each of these compounds has a reported Prodrug (%) value.
experiment: Plasma stability assay, human plasma; assay type: in vitro ADME; conditions: human, 0 min, 10 µM

compound	Prodrug (%)
CCCC(=O)O[C@H]1CC[C@@]2(c3ccc(OC)c(OC)c3)CCN(C)[C@H]2C1 [Compound 106]	100.00
COc1ccc([C@@]23CC[C@@H](OCOC(=O)C(C)(C)C)C[C@@H]2N(C)CC3)cc1OC [Compound 207]	100.0
COc1ccc([C@@]23CC[C@@H](OCOC(=O)C(C)C)C[C@@H]2N(C)CC3)cc1OC [Compound 208]	100.0
CCOC(=O)O[C@@H]1CC[C@@]2(c3ccc(OC)c(OC)c3)CCN(C)[C@H]2C1 [Compound 209]	100.0
COc1ccc([C@@]23CC[C@@H](OC(=O)C(C)(C)C)C[C@@H]2N(C)CC3)cc1OC [Compound 202]	100.0
COc1ccc([C@@]23CC[C@H](OC(=O)N(C)C)C[C@@H]2N(C)CC3)cc1OC [Compound 101]	100.00

---

experiment: Plasma stability assay, human plasma; type: in vitro ADME; conditions: human, 30 min, 10 µM
If the reported Prodrug (%) equals or exceeds 90%, assign 1 (yes). If not, assign 0 (no).

molecule	qualitative_label
COc1ccc([C@@]23CC[C@H](OC(=O)C(C)C)C[C@@H]2N(C)CC3)cc1OC [Compound 103]	1 (yes)
COc1ccc([C@@]23CC[C@H](OC(=O)C(C)(C)C)C[C@@H]2N(C)CC3)cc1OC [Compound 102]	1 (yes)
COc1ccc([C@@]23CC[C@@H](OCOC(=O)C(C)C)C[C@@H]2N(C)CC3)cc1OC [Compound 208]	0 (no)

---

experiment: Plasma stability assay, human plasma; assay type: in vitro ADME; details: human, 30 min, 10 µM
List of Prodrug (%) values.
property_label: Prodrug (%)

molecule	assay_value
COc1ccc([C@@]23CC[C@@H](OCOC(=O)C(C)(C)C)C[C@@H]2N(C)CC3)cc1OC	6.9%
COc1ccc([C@@]23CC[C@H](OC(=O)N(C)C)C[C@@H]2N(C)CC3)cc1OC	>99.0%
CCCC(=O)OCO[C@@H]1CC[C@@]2(c3ccc(OC)c(OC)c3)CCN(C)[C@H]2C1	1.0%
COc1ccc([C@@]23CC[C@@H](OC(=O)C(C)(C)C)C[C@@H]2N(C)CC3)cc1OC	>99.0%
CCCC(=O)OC1CC[C@@]2(c3ccc(OC)c(OC)c3)CCN(C)[C@H]2C1 (stereo in doubt)	92.7%
COc1ccc([C@@]23CC[C@@H](OC(=O)C(C)C)C[C@@H]2N(C)CC3)cc1OC	0.1%

---

In this section, each of the molecules is paired with its reported Prodrug (%).
assay: Plasma stability assay, rat plasma; type: in vitro ADME; settings: rat, 60 min, 10 µM
property_label: Prodrug (%)

molecule	property_label	measure_unit	assay_value
COc1ccc([C@@]23CC[C@H](OC(=O)N(C)C)C[C@@H]2N(C)CC3)cc1OC	Prodrug (%)	%	98.2
COc1ccc([C@@]23CC[C@H](OC(=O)C(C)(C)C)C[C@@H]2N(C)CC3)cc1OC	Prodrug (%)	%	68.1
COc1ccc([C@@]23CC[C@@H](OC(=O)C(C)(C)C)C[C@@H]2N(C)CC3)cc1OC	Prodrug (%)	%	9.6
COc1ccc([C@@]23CC[C@H](OC(=O)C(C)C)C[C@@H]2N(C)CC3)cc1OC	Prodrug (%)	%	0.6
CCCC(=O)OC1CC[C@@]2(c3ccc(OC)c(OC)c3)CCN(C)[C@H]2C1 (stereo in doubt)	Prodrug (%)	%	0.0
COc1ccc([C@@]23CC[C@@H](OCOC(=O)C(C)C)C[C@@H]2N(C)CC3)cc1OC	Prodrug (%)	%	0.0
COc1ccc([C@@]23CC[C@@H](OCOC(=O)C(C)(C)C)C[C@@H]2N(C)CC3)cc1OC	Prodrug (%)	%	0.0
CCCC(=O)O[C@H]1CC[C@@]2(c3ccc(OC)c(OC)c3)CCN(C)[C@H]2C1	Prodrug (%)	%	0.7
CCCCC(=O)O[C@H]1CC[C@@]2(c3ccc(OC)c(OC)c3)CCN(C)[C@H]2C1	Prodrug (%)	%	0.1
CCCCC(=O)OC1CC[C@@]2(c3ccc(OC)c(OC)c3)CCN(C)[C@H]2C1 (stereo in doubt)	Prodrug (%)	%	0.1
CCCC(=O)OCO[C@@H]1CC[C@@]2(c3ccc(OC)c(OC)c3)CCN(C)[C@H]2C1	Prodrug (%)	%	0.0
COc1ccc([C@@]23CC[C@@H](OC(=O)C(C)C)C[C@@H]2N(C)CC3)cc1OC	Prodrug (%)	%	0.0
CCOC(=O)O[C@@H]1CC[C@@]2(c3ccc(OC)c(OC)c3)CCN(C)[C@H]2C1	Prodrug (%)	%	0.0
